Measured TGI of individual entries
- Tested on: SNB-19 CNS
- PROTOCOL_TEXT: NCI tumour cell line growth inhibition, 48 h

Example molecules with recorded TGI:
CN(C)c1ccc(/C=C/C2=[N+](C)c3ccccc3C2(C)C)cc1
18.4 µM
CSC12c3cc(C)n(-c4ccccc4)c3CC(C)(C)CN1C(=O)C2Oc1ccccc1 (stereo not given)
> 100 µM
CSc1nc2c(ncn2C2OCC(O)C(O)C2O)c(=O)n1C (stereo not given)
> 100 µM
COC(=O)C1=C(C)C=C(N2CCOCC2)C(C(=O)OC)C1c1ccccc1 (stereo not given)
> 10 µM

Now examine the next entry.
Query: State the recorded TGI for this entry: "CC(=O)Oc1ccc(/C(=C(\C)c2ccc(Cl)cc2)c2ccc(OCCN3CCCCC3)cc2)cc1"
Response: 5.8 µM

* * *

- System: NCI-H460 lung
- PROTOCOL_TEXT: NCI tumour cell line growth inhibition, 48 h
PROPERTY_NAME: TGI

Example compounds with recorded TGI:
Clc1ccc(OCc2nnc3n2N=C(c2ccc(Cl)cc2Cl)CS3)cc1
51 µM
O=C1CSC(c2c[nH]c3ccccc23)N1c1ccccc1[N+](=O)[O-] (stereo unspecified)
> 100 µM
CC1=CC(N2C(=O)C(C)=CC2O)NC1=O (stereo unspecified)
> 100 µM
COc1ccccc1/C=C1\NC(=S)N(/C=C2\C(=O)Oc3ccccc3C2=O)C1=O
> 100 µM
c1ccc2c(c1)NC1(N3CCCCC3)CCCCC21 (stereo unspecified)
> 100 µM

Query: Report TGI for "Brc1ccc2c(c1)-c1nc3nc4c(cc3cc1CC2)CCc1ccc(Br)cc1-4" tested on NCI-H460 lung.
Response: > 100 µM

Query: Report TGI for "O=C1c2cccc(NCCN=Cc3ccccc3O)c2C(=O)c2c(NCCN=Cc3ccccc3O)cccc21" tested on NCI-H460 lung.
Response: 1.52 µM

Query: Report TGI for "O=C(CCCl)NNC1=NCCCN1" tested on NCI-H460 lung.
Response: > 100 µM

Query: Report TGI for CC(=O)N1N=C2/C(=C/c3ccc(Cl)cc3)CC(C)CC2C1c1ccc(Cl)cc1 (stereo unspecified) tested on NCI-H460 lung.
Response: 41.8 µM

Query: Report TGI for Clc1cc(Cl)cc(N2N=C(c3cccc(Nc4ccncc4)c3)CC2c2ccc3c(c2)OCO3)c1 (stereo unspecified) tested on NCI-H460 lung.
Response: 3.34 µM

Query: Report TGI for "CCN(CC)CCNc1ccc2nnn3c4ccc(O)cc4c(=O)c1c23" tested on NCI-H460 lung.
Response: 4.64 µM

* * *

Measured GI50 of individual entries
- Test system: PC-3 prostate
- PROTOCOL_TEXT: NCI tumour cell line growth inhibition, 48 h

Example compounds with recorded GI50:
Cc1ccc(Cl)c(Nc2ccccc2C(=O)O)c1Cl
29.9 µM
COc1ccc(-n2ccnc2-c2cc(OC)c(OC)c(OC)c2)cc1
3.3 µM
Clc1ccc(OCc2nnc3n2N=C(c2ccc(Cl)cc2Cl)CS3)cc1
27.6 µM

Query: State the recorded GI50 for this entry: CC(=O)N1N=C2/C(=C/c3ccc(Cl)cc3)CC(C)CC2C1c1ccc(Cl)cc1 (stereo unspecified)
Response: 12.8 µM

Query: State the recorded GI50 for this entry: "CN1CCN(Cc2ccc(NC(=O)c3cccc(C#Cc4cnc(N)c5ncccc45)c3F)cc2C(F)(F)F)CC1"
Response: 2.02 µM

Query: State the recorded GI50 for this entry: "COc1ccc(/C=C/C(=O)c2ccc(OC)c(OC)c2)cc1O"
Response: 12.8 µM

* * *

- System: OVCAR-4 ovarian
- PROTOCOL_TEXT: NCI tumour cell line growth inhibition, 48 h; in the data active = GI50 below about 0.43 µM; inactive = the rest
One label from this list, please: active, inactive

Examples with answers:
COc1ccc2nc3cc(Cl)ccc3c(Sc3ccc([N+](=O)[O-])cc3)c2c1
inactive
CN(C)c1ccc(/C=C/C2=[N+](C)c3ccccc3C2(C)C)cc1
inactive
CCN(CC)C1CCC(Nc2c(C(C)=O)cnc3ccc(-c4ccc(O)c(Cl)c4)cc23)CC1 (centres undefined)
inactive
CC1(C)[C@@H](OC(=O)CCC(=O)O)CC[C@]2(C)[C@H]3C(=O)C=C4[C@@H]5C[C@@](C)(C(=O)O)CC[C@]5(C)CC[C@@]4(C)[C@]3(C)CC[C@@H]12
inactive
CCCCCCCCCCCCOC1C(CNC(=O)C2OC3OC(C)(C)OC3C2NC(=O)Nc2ccc(CC(=O)NC(Cc3ccccc3)C(=O)O)cc2)OC2OC(C)(C)OC21 (centres undefined)
inactive

Query: Give the logged outcome of this assay for the following compound: CC(=O)OC1CC2C3CCC4C[C@@H](NC(=O)C=C(C)C)CC[C@]4(C)C3CC[C@]2(C)[C@H]1C(C)N(C)C (some centres undefined)
Response: inactive

Query: Give the logged outcome of this assay for the following compound: "c1ccc2cc(C[n+]3ccn(CCCCCCCCCCn4cc[n+](Cc5ccc6ccccc6c5)c4)c3)ccc2c1"
Response: inactive

Query: Give the logged outcome of this assay for the following compound: "CCN1Cc2nc3sc(C)c(C)c3c(=O)n2C=C1C"
Response: inactive

Query: Give the logged outcome of this assay for the following compound: "O=c1oc2ccc(Br)cc2c(=O)n1-c1ccc(I)cc1F"
Response: active

Query: Give the logged outcome of this assay for the following compound: "COc1ccc(-n2ccnc2-c2cc(OC)c(OC)c(OC)c2)cc1"
Response: inactive

* * *

- System: ACHN renal
- PROTOCOL_TEXT: NCI tumour cell line growth inhibition, 48 h
Measured GI50 of individual entries

CCOc1cccc(-c2nc(N)nc(Nc3ccccc3SSc3ccccc3Nc3nc(N)nc(-c4cccc(OCC)c4)n3)n2)c1
2140 nM

Query: Report GI50 for "Clc1ccc(OCc2nnc3n2N=C(c2ccc(Cl)cc2Cl)CS3)cc1" tested on ACHN renal.
Response: 20400 nM

Query: Report GI50 for CC(=O)OC1CC2C3CCC4C[C@@H](NC(=O)C=C(C)C)CC[C@]4(C)C3CC[C@]2(C)[C@H]1C(C)N(C)C (stereo not given in full) tested on ACHN renal.
Response: 2730 nM

Query: Report GI50 for "Oc1cc2ccccc2c(-c2c(O)c(O)cc3ccccc23)c1O" tested on ACHN renal.
Response: 571 nM

Query: Report GI50 for COc1ccc(C2=NN(C(=O)c3cc(OC)c(OC)c(OC)c3)C(c3ccc(N(C)C)cc3)C2)cc1 (stereo not given) tested on ACHN renal.
Response: 622 nM

* * *

- Test system: HS 578T breast
- PROTOCOL_TEXT: NCI tumour cell line growth inhibition, 48 h; in the data active = GI50 below about 0.43 µM; inactive = the rest
One label from this list, please: 1 (active), -1 (inactive)

Examples with answers:
CC(=O)OC12COC1CC(O)C1(C)C(=O)C(O)C3=C(C)C(O)CC(O)(C(OC(=O)c4ccccc4)C21)C3(C)C (stereo unspecified)
-1
CC(=O)OC1CC2C3CCC4C[C@@H](NC(=O)C=C(C)C)CC[C@]4(C)C3CC[C@]2(C)[C@H]1C(C)N(C)C (stereo partly specified)
-1
COc1cc(-c2cc(-c3cc(OC)c(OC)c(OC)c3)nc3nc(N)[nH]c(=O)c23)ccc1Oc1ccnc2cc(Cl)ccc12
-1

Query: Give the logged outcome of this assay for the following molecule: CCCCCCCCCCCCCCCCC(=O)O.CCCCCCCCCCCCCCCCCC(=O)O.CCCCCCCCCCCCCCCCCC(=O)O.CCCCCCCCCCCCCCCCCC(=O)O.CCCCCCCCCCCCCCCCCC(=O)O.CO[CH-]OC12COC1CC(O)C1(C)C(O)C(OC(C)O)C3=C(C)C(OC(=O)C(O)C([NH-])c4ccccc4)CC(O)(C(OC(=O)c4ccccc4)C21)C3(C)C.[Cu+].[Zn].[Zn].[Zn].[Zn].[Zn] (stereo unspecified)
Response: 1

Query: Give the logged outcome of this assay for the following molecule: "CCOc1cccc(-c2nc(N)nc(Nc3ccccc3SSc3ccccc3Nc3nc(N)nc(-c4cccc(OCC)c4)n3)n2)c1"
Response: -1

Query: Give the logged outcome of this assay for the following molecule: "Clc1ccc(-c2cc(-c3ccccc3)nc(NCCNc3ccnc4cc(Cl)ccc34)n2)cc1"
Response: -1

Query: Give the logged outcome of this assay for the following molecule: "Cc1cc(N(CCCl)CCCl)ccc1C=Nc1ccc2ccccc2c1"
Response: -1

Query: Give the logged outcome of this assay for the following molecule: CCCCCCCCCCCCOC1C(CNC(=O)C2OC3OC(C)(C)OC3C2NC(=O)Nc2ccc(CC(=O)NC(Cc3ccccc3)C(=O)O)cc2)OC2OC(C)(C)OC21 (stereo unspecified)
Response: -1

Query: Give the logged outcome of this assay for the following molecule: "O=C(c1ccco1)c1c(C(F)(F)F)n([O-])c2ccc(Cl)cc2[n+]1=O"
Response: -1

Query: Give the logged outcome of this assay for the following molecule: "CC(=O)c1cc(C(=O)c2ccc3c(c2)Sc2ccccc2N3)c2cc(C)ccn12"
Response: 1

Query: Give the logged outcome of this assay for the following molecule: "Cn1c(=O)c(Oc2ccc(F)cc2F)cc2cnc(NC3CCS(=O)(=O)CC3)nc21"
Response: -1
